Biological target: human CD3 expressed on cells (Jurkat cells, a CD3+ human T-cell line; human PBMC T cells) (human, UniProt P07766 23-207; P04234 22-171)
Sequence (P07766 23-207 limits assumed, chain 1 of 2): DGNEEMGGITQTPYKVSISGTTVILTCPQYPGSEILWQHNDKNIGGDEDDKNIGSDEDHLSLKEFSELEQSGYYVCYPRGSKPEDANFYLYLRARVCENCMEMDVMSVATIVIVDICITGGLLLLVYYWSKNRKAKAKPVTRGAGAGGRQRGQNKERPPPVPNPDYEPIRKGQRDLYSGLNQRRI
Sequence (P04234 22-171 limits assumed, chain 2 of 2): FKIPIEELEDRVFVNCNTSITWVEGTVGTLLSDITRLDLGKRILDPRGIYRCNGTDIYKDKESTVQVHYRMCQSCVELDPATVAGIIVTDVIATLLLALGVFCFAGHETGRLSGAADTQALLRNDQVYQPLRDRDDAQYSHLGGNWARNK
Test: cell-based or functional assay
The binders listed here are annotated with their EC50 [M] hPBMC Proliferation.
Numbers only; they are read as M.

- Binder: "H2M2789N (antibody, mouse IgG2, V domains shown) VH: QVTLKESGPALVKPTQTLTLTCTFSGFSLSTSGMCVSWIRQPPGKALEWLARIDWDDDKYYSTSLKTRLTISKDTSKNQVVLTMTNMDPVDTATYYCARMDIVGARGGWFDPWGQGTLVTVSS VL: DIQMTQSPSSLSASVGDRVTITCRASQGISNYLAWFQQKPGKAPKSLIYAASSLQSGVPSKFSGSGSGTDFTLTISSLQPEDFATYYCQQYNSYPLTFGGGTKVEIK"
  Recorded Measurement: "2.85e-08"

Respond only with EC50 [M] hPBMC Proliferation recorded for H2M2777N (antibody, mouse IgG2, V domains shown, H2M: mouse IgG2 Fc, human variable regions; divalent) VH: QVQLVESGGGVVQPGRSLRLSCIASGFTFRSYGMHWVRQAPGKGLEWVAMIYYDGNNKYYADSVRGRFTISRDNSKNTLYLQMNSLRADDTAVYFCARGPGYNWLDPWGQGTLVTVSS VL: EIVMTQSPATLSVSPGERATLSCRASQSVSSNLAWYQQKPGQAPRLLIYGASTRATGIPARFSGSGSGTEFTLTISSLQSEDFAVYYCQQYNNRPLTFGGGTKVEIK
2.51e-11

Respond only with EC50 [M] hPBMC Proliferation recorded for H2M2708N (antibody, mouse IgG2, V domains shown, H2M: mouse IgG2 Fc, human variable regions; divalent) VH: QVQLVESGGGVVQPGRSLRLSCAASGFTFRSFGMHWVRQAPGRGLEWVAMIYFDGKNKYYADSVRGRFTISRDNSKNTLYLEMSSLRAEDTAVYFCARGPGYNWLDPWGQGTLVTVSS VL: EIVMTQSPATLSVSPGERVTLSCRASQSISRNLAWYQQKPGQAPRLLIYGASTRATGVPARFSGSGSGTEFTLTISSLQSEDFAVFHCQQYNNRPLTFGGGTEVEIK
2.69e-08

Respond only with EC50 [M] hPBMC Proliferation recorded for H2M2707N (antibody, mouse IgG2, V domains shown, H2M: mouse IgG2 Fc, human variable regions; divalent) VH: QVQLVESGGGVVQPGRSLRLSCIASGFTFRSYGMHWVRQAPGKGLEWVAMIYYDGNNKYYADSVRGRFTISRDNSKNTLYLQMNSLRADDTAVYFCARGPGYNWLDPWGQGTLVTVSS VL: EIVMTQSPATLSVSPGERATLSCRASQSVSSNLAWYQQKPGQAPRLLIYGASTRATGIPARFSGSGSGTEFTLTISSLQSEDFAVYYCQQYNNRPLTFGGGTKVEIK
1.92e-12

Respond only with EC50 [M] hPBMC Proliferation recorded for H2M3547N (antibody, mouse IgG2, V domains shown, H2M: mouse IgG2 Fc, human variable regions; divalent) VH: EAQLVESGGGLVQPGRSLRLSCTTSGFTFDDYTMHWVRQAPGKGLEWISDISWNGGTKGYADSVKGRFTISRDNAKNSLYLQMDSLRGEDTALYYCVKDKSGYGHFYFGLDVWGQGTTVTVSS VL: DIQMTQSPSSLTASVGDRVTFTCRASQSISRHLSWYQQKPGKAPKLLIYAASSLESGVPSRFSGSGSGTDFTLTISSLHPEDFATYYCQQSYSNPPITFGQGTRLEIK
5.02e-12
